Measurement record for human mTOR (His-tagged mTOR (1362C)) (Homo sapiens, UniProt P42345); quantity recorded: pIC50.
pIC50: −log10 of the molar value.

Nc1ncc(-c2nc(N3CCOCC3)c3nc(N4CCOCC4)n(CC4CCOC4)c3n2)cn1 (stereo not drawn) | 7.00 to 7.52
Nc1ncc(-c2nc(N3CCOCC3)c3nc(N4CCOCC4)n(CC4CC4)c3n2)cn1 | 7.00 to 7.52
CNc1ncc(-c2nc(N3CCOCC3)c3nc(N4CCOCC4)n(CC4CCOC4)c3n2)cn1 (stereo not drawn) | 6.30 to 7.00
C[C@H]1CN(c2nc3c(N4CCOCC4)nc(-c4cnc(N)nc4)nc3n2CC2CC2)CCN1 | 7.52 to 8.00
C[C@@H]1CN(c2nc3c(N4CCOCC4)nc(-c4cnc(N)nc4)nc3n2[C@H]2CCN(S(C)(=O)=O)C2)C[C@H](C)N1 | 6.30 to 7.00

Provide each entry's pIC50 from the list below.
1. CC(O)C(=O)N1[C@H](C)CN(c2nc3c(N4CCOCC4)nc(-c4cnc(N)nc4)nc3n2CC(F)(F)F)C[C@@H]1C (stereo partly drawn)
2. C[C@@H]1CN(c2nc3c(N4CCOCC4)nc(-c4cnc(N)nc4)nc3n2CC(F)(F)F)CCN1C=O
3. Nc1ncc(-c2nc(N3CCOCC3)c3nc(N4CCC(S(=O)(=O)c5ccccc5)C4)n(CC4CC4)c3n2)cn1 (stereo not drawn)
4. CNc1ncc(-c2nc(N3CCOCC3)c3nc(N4CCN(S(C)(=O)=O)CC4)n(CC4CC4)c3n2)cn1
5. C[C@@H](O)C(=O)N1CCN(c2nc3c(N4CCOCC4)nc(-c4cnc(N)nc4)nc3n2CC2CC2)C[C@@H]1C
6. CNCC(=O)N1CCN(c2nc3c(N4CCOCC4)nc(-c4cnc(N)nc4)nc3n2CC2CC2)CC1
7. CCC(=O)N1CCN(c2nc3c(N4CCOCC4)nc(-c4cnc(N)nc4)nc3n2CC(F)(F)F)CC1

1. > 8.00
2. > 8.00
3. 7.00 to 7.52
4. 7.00 to 7.52
5. > 8.00
6. 7.00 to 7.52
7. > 8.00

Field: pIC50. Fill in for each record below.
1. CC(=O)N1CCN(c2nc3c(N4CCOCC4)nc(-c4cnc(N)nc4)nc3n2CC(F)(F)F)C[C@@H]1C
2. CC[C@@H]1CN(c2nc3c(N4CCOCC4)nc(-c4cnc(N)nc4)nc3n2CC(F)(F)F)CCN1C(=O)[C@H](C)O
3. CC(C)Cn1c(N2CCN(C(=O)[C@@H](C)O)CC2)nc2c(N3CCOCC3)nc(-c3cnc(N)nc3)nc21

1. > 8.00
2. > 8.00
3. 7.52 to 8.00

---

pIC50: −log10 of the molar value.
Each entry below carries its measured pIC50, system: PI3Kα (Homo sapiens, UniProt P42336).
Sequence (P42336 whole entry, species assumed): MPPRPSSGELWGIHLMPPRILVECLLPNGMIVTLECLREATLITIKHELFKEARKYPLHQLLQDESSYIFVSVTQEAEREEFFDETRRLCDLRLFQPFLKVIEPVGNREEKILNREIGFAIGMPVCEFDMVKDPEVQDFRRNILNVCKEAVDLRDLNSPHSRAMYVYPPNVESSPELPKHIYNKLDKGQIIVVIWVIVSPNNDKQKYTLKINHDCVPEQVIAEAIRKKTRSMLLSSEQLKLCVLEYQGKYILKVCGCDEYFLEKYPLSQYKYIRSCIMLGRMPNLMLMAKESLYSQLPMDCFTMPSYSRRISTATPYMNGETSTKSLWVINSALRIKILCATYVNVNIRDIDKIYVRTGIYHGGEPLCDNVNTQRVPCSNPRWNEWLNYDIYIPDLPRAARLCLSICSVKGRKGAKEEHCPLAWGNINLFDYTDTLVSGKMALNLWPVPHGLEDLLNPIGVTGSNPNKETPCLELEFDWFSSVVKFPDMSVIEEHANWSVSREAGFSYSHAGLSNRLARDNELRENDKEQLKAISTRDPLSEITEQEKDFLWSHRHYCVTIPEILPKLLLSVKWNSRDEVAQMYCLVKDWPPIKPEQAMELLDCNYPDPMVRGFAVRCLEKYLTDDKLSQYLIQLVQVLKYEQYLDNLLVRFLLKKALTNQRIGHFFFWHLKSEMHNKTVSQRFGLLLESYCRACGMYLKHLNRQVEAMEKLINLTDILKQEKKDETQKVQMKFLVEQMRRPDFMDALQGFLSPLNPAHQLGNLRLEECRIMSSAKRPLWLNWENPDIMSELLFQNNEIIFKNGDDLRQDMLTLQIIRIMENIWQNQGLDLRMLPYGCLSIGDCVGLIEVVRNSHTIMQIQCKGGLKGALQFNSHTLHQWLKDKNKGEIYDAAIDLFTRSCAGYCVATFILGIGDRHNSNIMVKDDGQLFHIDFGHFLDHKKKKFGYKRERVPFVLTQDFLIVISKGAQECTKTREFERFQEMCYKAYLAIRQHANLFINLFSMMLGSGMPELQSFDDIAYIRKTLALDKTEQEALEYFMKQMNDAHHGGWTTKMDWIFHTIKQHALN
Sequence (P27986 whole entry partner, species assumed): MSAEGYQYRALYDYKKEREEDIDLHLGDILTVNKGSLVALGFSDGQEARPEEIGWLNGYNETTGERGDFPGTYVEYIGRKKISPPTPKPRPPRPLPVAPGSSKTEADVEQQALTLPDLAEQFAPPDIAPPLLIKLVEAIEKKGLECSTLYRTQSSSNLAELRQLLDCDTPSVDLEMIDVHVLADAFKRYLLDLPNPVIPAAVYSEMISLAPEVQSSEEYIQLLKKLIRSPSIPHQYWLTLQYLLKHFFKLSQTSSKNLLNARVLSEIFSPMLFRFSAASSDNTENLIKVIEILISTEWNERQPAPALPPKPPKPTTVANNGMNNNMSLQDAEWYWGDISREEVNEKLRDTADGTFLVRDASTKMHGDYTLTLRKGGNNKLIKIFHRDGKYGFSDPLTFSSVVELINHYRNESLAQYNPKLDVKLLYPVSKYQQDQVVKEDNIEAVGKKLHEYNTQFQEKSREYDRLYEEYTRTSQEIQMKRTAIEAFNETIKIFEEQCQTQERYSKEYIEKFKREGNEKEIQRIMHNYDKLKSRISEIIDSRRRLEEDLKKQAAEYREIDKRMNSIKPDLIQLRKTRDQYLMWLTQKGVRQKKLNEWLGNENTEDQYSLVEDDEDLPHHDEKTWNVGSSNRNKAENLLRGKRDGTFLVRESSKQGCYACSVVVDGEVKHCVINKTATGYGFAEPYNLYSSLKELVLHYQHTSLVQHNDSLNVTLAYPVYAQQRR

Record excerpt, results attached:
C[C@@H]1CN(c2nc3c(N4CCOCC4)nc(-c4cnc(N)nc4)nc3n2CC2CCOC2)C[C@H](C)N1 (stereo partly shown) | 7.30 to 7.70
Nc1ncc(-c2nc(N3CCOCC3)c3nc(N4CCNCC4)n(CC4CC4)c3n2)cn1 | 7.70 to 8.00
CC(C)Cn1c(N2CCN(C(=O)CN(C)C)CC2)nc2c(N3CCOCC3)nc(-c3cnc(N)nc3)nc21 | > 8.00
C[C@H](O)C(=O)N1CCN(c2nc3c(N4CCOCC4)nc(-c4cnc(N)nc4)nc3n2CC(F)(F)F)C[C@H]1C | > 8.00
C[C@H]1CN(c2nc3c(N4CCOCC4)nc(-c4cnc(N)nc4)nc3n2CC2CC2)CCN1 | > 8.00

Please give pIC50 for each item listed below.
1. C[C@H]1CN(c2nc3c(N4CCOCC4)nc(-c4cnc(N)nc4)nc3n2CC(F)(F)F)CCN1
2. CNc1ncc(-c2nc(N3CCOCC3)c3nc(N4CCOCC4)n(CC4CCOC4)c3n2)cn1 (stereo not shown)

1. > 8.00
2. 7.00 to 7.30

---

Test system PI3Kα (Homo sapiens, UniProt P42336), IC50 listed for each of the compounds.

See these solved cases before continuing.
CNc1ncc(-c2nc(N3CCOCC3)c3nc(N4CCN(C(C)=O)CC4)n(CC(F)(F)F)c3n2)cn1 [Example 134] | < 10 nM
Nc1ncc(-c2nc(N3CCOCC3)c3nc(N4CCOCC4)n(CC4CCOC4)c3n2)cn1 (stereo not drawn) [Example 23] | 20 to 50 nM
CC(C)Cn1c(N2CCCN(S(C)(=O)=O)CC2)nc2c(N3CCOCC3)nc(-c3cnc(N)nc3)nc21 [Example 49] | < 10 nM
Cc1nc(N)ncc1-c1nc(N2CCOCC2)c2nc(NCCN(C)C)n(CC3CC3)c2n1 [Example 21] | 10 to 20 nM
CNc1ncc(-c2nc(N3CCOCC3)c3nc(N4C[C@@H](C)N[C@@H](C)C4)n(CC4CCOC4)c3n2)cn1 (stereo partly drawn) [Example 18] | 50 to 100 nM
Nc1ncc(-c2nc(N3CCOCC3)c3nc(NCCN4CCOCC4)n(CC4CC4)c3n2)cn1 [Example 29] | 10 to 20 nM

List the reported IC50 of each compound below.
1. C[C@H](O)C(=O)N1CCN(c2nc3c(N4CCOCC4)nc(-c4cnc(N)nc4)nc3n2CC2CC2)C[C@H]1C [Example 95]
2. CC(=O)N1CCN(c2nc3c(N4CCOCC4)nc(-c4cnc(N)nc4)nc3n2CC(F)(F)F)C[C@H]1C [Example 60]
3. C[C@@H]1CN(c2nc3c(N4CCOCC4)nc(-c4cnc(N)nc4)nc3n2[C@H]2CCN(S(C)(=O)=O)C2)C[C@H](C)N1 [Example 26]
4. CC(=O)N1CCN(c2nc3c(N4CCOCC4)nc(-c4cnc(N)nc4)nc3n2CC(C)C)C[C@@H]1C [Example 101]
5. C[C@@H]1CN(c2nc3c(N4CCOCC4)nc(-c4cnc(N)nc4)nc3n2CC2CC2)CCN1 [Example 94]
6. C[C@@H]1CN(c2nc3c(N4CCOCC4)nc(-c4cnc(N)nc4)nc3n2CC(F)(F)F)C[C@H](C)N1C=O [Example 116]
7. Cc1nc(N)ncc1-c1nc(N2CCOCC2)c2nc(NCCN3CCOCC3)n(CC3CC3)c2n1 [Example 22]

1. 10 to 20 nM
2. < 10 nM
3. 20 to 50 nM
4. 10 to 20 nM
5. < 10 nM
6. < 10 nM
7. 10 to 20 nM

State recorded IC50 for all listed compounds.
1. CC(=O)N1CCN(c2nc3c(N4CCOCC4)nc(-c4cnc(N)nc4)nc3n2CC(F)(F)F)CC1(C)C [Example 122]
2. CC(C)Cn1c(N2CCN(S(C)(=O)=O)[C@H](C)C2)nc2c(N3CCOCC3)nc(-c3cnc(N)nc3)nc21 [Example 54]

["< 10 nM", "10 to 20 nM"]

---

Exercise: state measured inhibition at 10 mg/kg for each of the compounds provided.
test system: Akt (threonine 308) phosphorylation in AN3CA tumor; experiment: Akt phosphorylation inhibition assay in xenograft; type: in vivo, female nude mouse; details: Mus musculus, AN3-CA, oral, 6 hr after dosing

Known results for compounds:
CC(C)Cn1c(N2CCN(C(=O)C[C@H](C)O)CC2)nc2c(N3CCOC[C@@H]3C)nc(-c3cnc(N)nc3)nc21 [Example 133] | > 60%
C[C@H](O)CC(=O)N1CCN(c2nc3c(N4CCOCC4)nc(-c4cnc(N)nc4)nc3n2CC(F)(F)F)CC1 [Example 69] | > 60%
CC(=O)N1CCN(c2nc3c(N4CCOCC4)nc(-c4cnc(N)nc4)nc3n2CC2CC2)C[C@@H]1C [Example 96] | > 60%

Need inhibition at 10 mg/kg for each of these compounds.
1. CC(=O)N1CCN(c2nc3c(N4CCOC[C@@H]4C)nc(-c4cnc(N)nc4C)nc3n2CC2CC2)CC1 [Example 128]
2. C[C@H](O)C(=O)N1CCN(c2nc3c(N4CCOCC4)nc(-c4cnc(N)nc4)nc3n2CC2CC2)C[C@H]1C [Example 95]
3. CC(C)Cn1c(N2CCN(C=O)CC2)nc2c(N3CCOC[C@@H]3C)nc(-c3cnc(N)nc3)nc21 [Example 132]
4. CC[C@H]1CN(c2nc3c(N4CCOCC4)nc(-c4cnc(N)nc4)nc3n2CC(F)(F)F)CCN1C(C)=O [Example 75]
5. CNc1ncc(-c2nc(N3CCOCC3)c3nc(N4CCN(S(C)(=O)=O)[C@H](C)C4)n(CC(F)(F)F)c3n2)cn1 [Example 106]
6. C[C@@H]1CN(c2nc3c(N4CCOCC4)nc(-c4cnc(N)nc4)nc3n2CC(F)(F)F)CCN1C=O [Example 112]
7. CC(=O)N1CCN(c2nc3c(N4CCOCC4)nc(-c4cnc(N)nc4)nc3n2CC(F)(F)F)C[C@@H]1C [Example 63]

["30 to 60%", "> 60%", "> 60%", "> 60%", "> 60%", "> 60%", "> 60%"]
